The origin of these recorded values is patent US20240024426A1.

Target: T1, human GIP receptor (human, UniProt P48546 22-466)
T1 sequence (looked up): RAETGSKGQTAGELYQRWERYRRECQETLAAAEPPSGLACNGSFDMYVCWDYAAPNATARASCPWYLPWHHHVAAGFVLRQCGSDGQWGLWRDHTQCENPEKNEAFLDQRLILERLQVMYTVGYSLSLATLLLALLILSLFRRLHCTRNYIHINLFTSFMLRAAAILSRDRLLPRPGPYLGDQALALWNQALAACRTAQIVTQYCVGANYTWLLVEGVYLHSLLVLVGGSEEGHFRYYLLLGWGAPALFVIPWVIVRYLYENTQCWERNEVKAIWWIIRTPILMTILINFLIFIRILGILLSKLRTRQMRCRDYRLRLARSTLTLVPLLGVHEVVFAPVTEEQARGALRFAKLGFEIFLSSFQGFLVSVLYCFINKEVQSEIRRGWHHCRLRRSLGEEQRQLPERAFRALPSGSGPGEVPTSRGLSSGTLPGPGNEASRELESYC
Experiment: cell-based or functional assay
Bridges are numbered along the chain shown (N, C = ends). Where no end group is shown, it is not given here. [ ]: non-standard residue; d: D form. The star is where a group is joined. Acetyl(2-(4-imidazolyl)) = O=C(Cc1c[nH]cn1)*; Aib = CC(C)(N)C(=O)O
I would appreciate it if you labelled entries y when In vitro activity compared with native peptide (%) vs. GIP is 20% or higher, otherwise n.

Query block: Could you please find out whether Y[Aib]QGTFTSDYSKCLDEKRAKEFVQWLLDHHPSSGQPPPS (bridge 16-20) [Triple agonist of SEQ ID NO: 22] has In vitro activity compared with native peptide (%) vs. GIP that meets 20% or exceeds it?
Result block: y

Query block: // inclusive: In vitro activity compared with native peptide (%) vs. GIP at least 20%? input: Y[Aib]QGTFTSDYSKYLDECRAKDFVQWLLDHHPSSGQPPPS (bridge 16-20) [Triple agonist of SEQ ID NO: 66]
Result block: n

Query block: Record {Acetyl(2-(4-imidazolyl))}-[Aib]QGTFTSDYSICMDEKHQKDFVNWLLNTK (bridge 15-19) [Triple agonist of SEQ ID NO: 59] ; criterion: In vitro activity compared with native peptide (%) vs. GIP no lower than 20%. Met?
Result block: n

Query block: Please check the record Y[Aib]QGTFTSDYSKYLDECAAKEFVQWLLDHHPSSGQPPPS (bridge 16-20) [Triple agonist of SEQ ID NO: 64] and state if its In vitro activity compared with native peptide (%) vs. GIP is at or above 20%.
Result block: y

Query block: Determine whether this binder has In vitro activity compared with native peptide (%) vs. GIP no lower than 20%: H[Aib]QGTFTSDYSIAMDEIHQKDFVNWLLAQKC (bridge 16-20) [Triple agonist of SEQ ID NO: 33]
Result block: n
